Where do the numbers come from? From paper PMC6457190.

System: K. pneumoniae
Type: cell-based, Klebsiella pneumoniae
Details: 18 h
Description: IV. Antimicrobial testing All minimum inhibitory concentrations (MICs) were determined according to Clinical and Standards Laboratory Institute (CLSI) guidelines. Briefly, peptides were dissolved in Muller-Hinton Broth (MHB) and serial dilutions made across a 96 well plate. Each well was inoculated with a suspension of the required bacterial strain to reach a final inoculum of 5 x 10^5 colony forming units per mL. The MIC was taken as the lowest concentration with no visible growth after 18 hours.
Where a SMILES comes first, the peptide text is derived from it. [ ]: non-standard residue; d: D form. The star is where a group is joined. d(aIle) = CC[C@H](C)[C@@H](N)C(=O)O; dDab = NCC[C@@H](N)C(=O)O; Octanoyl = CCCCCCCC(=O)*
measure: Peptide MIC (μg mL^–1)
Write it as a number; the unit μg mL^–1 goes unstated.

Using the record for CCCCCCCC(=O)N[C@@H](C(=O)N[C@H](CCCCN)C(=O)NCC(=O)N[C@H](CO)C(=O)N[C@H](Cc1c[nH]c2ccccc12)C(=O)N[C@@H](CO)C(=O)N[C@@H](CCCCN)C(=O)N[C@H](CCN)C(=O)N[C@@H](Cc1ccccc1)C(=O)N[C@@H](CCC(=O)O)C(=O)N[C@H](C(=O)N[C@@H](C(=O)N[C@@H](C)C(=O)O)[C@@H](C)CC)C(C)C)C(C)C [Peptide 4, Oct-TriA1 (2-D-Lys, 7-Lys)] (Octanoyl-[dV][dK]G[dS][dW]SK[dDab]FEV[d(aIle)]A-OH) , state its measured Peptide MIC.
50

* * *

test system: P. pseudoalcaligenes; assay type: cell-based, Pseudomonas pseudoalcaligenes; settings: 18 h
Where a SMILES comes first, the peptide text is derived from it. [ ]: non-standard residue; d: D form. The star is where a group is joined. d(aIle) = CC[C@H](C)[C@@H](N)C(=O)O; dDab = NCC[C@@H](N)C(=O)O; Octanoyl = CCCCCCCC(=O)*
We begin with a simple list: items and their reported Peptide MIC.

Completed entries (count: 2):
molecule	assay.value
CCCCCCCC(=O)N[C@@H](C(=O)N[C@H](CCN)C(=O)NCC(=O)N[C@H](CO)C(=O)N[C@H](Cc1c[nH]c2ccccc12)C(=O)N[C@@H](CO)C(=O)N[C@@H](CCN)C(=O)N[C@H](CCN)C(=O)N[C@@H](Cc1ccccc1)C(=O)N[C@@H](CCC(=O)O)C(=O)N[C@H](C(=O)N[C@@H](C(=O)N[C@@H](C)C(=O)O)[C@@H](C)CC)C(C)C)C(C)C [Peptide 1, Oct-TriA1, reference compound]	50 μg mL^–1
CCCCCCCC(=O)N[C@@H](C(=O)N[C@H](CCCCN)C(=O)NCC(=O)N[C@H](CO)C(=O)N[C@H](Cc1c[nH]c2ccccc12)C(=O)N[C@@H](CO)C(=O)N[C@@H](CCCCN)C(=O)N[C@H](CCCCN)C(=O)N[C@@H](Cc1ccccc1)C(=O)N[C@@H](CCC(=O)O)C(=O)N[C@H](C(=O)N[C@@H](C(=O)N[C@@H](C)C(=O)O)C(C)C)C(C)C)C(C)C [Peptide 8, Oct-TriA2 (2,8-D-Lys, 7-Lys)] (HELM PEPTIDE1{[CCCCCCCC(=O)[*:2]].[dV].[dK].G.[dS].[dW].S.K.[dK].F.E.V.[dV].A}$$$$V2.0)	>100 μg mL^–1

Consider now this further molecule.
Using the record for CCCCCCCC(=O)N[C@@H](C(=O)N[C@H](CCCCN)C(=O)NCC(=O)N[C@H](CO)C(=O)N[C@H](Cc1c[nH]c2ccccc12)C(=O)N[C@@H](CO)C(=O)N[C@@H](CCCCN)C(=O)N[C@H](CCN)C(=O)N[C@@H](Cc1ccccc1)C(=O)N[C@@H](CCC(=O)O)C(=O)N[C@H](C(=O)N[C@@H](C(=O)N[C@@H](C)C(=O)O)[C@@H](C)CC)C(C)C)C(C)C [Peptide 4, Oct-TriA1 (2-D-Lys, 7-Lys)] (Octanoyl-[dV][dK]G[dS][dW]SK[dDab]FEV[d(aIle)]A-OH) , state its measured Peptide MIC.
25 μg mL^–1
